tested on: MDA-MB-435; experiment: NCI tumour cell line growth inhibition, 48 h
Reported TGI values follow for various compounds
readout.kind: TGI (µM)

1. CC1S/C(=N\N=C2/C(=O)Nc3ccc(Br)cc32)N(C2CCCCC2)C1=O (stereo not given)    23.1
2. CC(=O)OC1C(Oc2c(C)cc3c(c2O)[C@@H](C)CC[C@@H]3[C@@H](C)CCC=C(C)C)OCC(O)C1O (stereo not given in full)    28.1

====

test system: NCI-H23 lung; assay: NCI tumour cell line growth inhibition, 48 h
readout.kind: GI50

1) Cc1ccc(N=C/C=C(\Nc2ccc(C)cc2)c2ccc(Cl)cc2)cc1    11 µM
2) O=C(Nc1n[nH]c2cc(-c3ccccc3)ccc12)C1CC1    16.8 µM
3) C/C(=N\Nc1ccc(Cl)cn1)c1ccc2ccccc2n1    3.55 µM
4) O=S(=O)(c1ccc(NC(=S)NC23CC4CC(CC(C4)C2)C3)cc1)N1CCCCC1    3.5 µM
5) C=C(C)[C@@H]1CC[C@]2(CO)CC[C@]3(C)[C@H](CC[C@@H]4[C@@]5(C)C=C(C#N)C(=O)C(C)(C)[C@@H]5CC[C@]43C)[C@@H]12    2 µM
6) COC(=O)Nc1nc2ccc(C3(c4ccc(F)cc4)OCCO3)cc2[nH]1    1.14 µM
7) COc1ccc(-c2nc3ccccn3c2/C=C/C(=O)c2cc(OC)c(OC)c(OC)c2)cc1OC    3.78 µM
8) C=CCCCCC/C=C\[C@@H](O)C#CC#C/C=C/CO    43.6 µM
9) CC1(C)C(=O)/C(=C\c2cccnc2)C[C@]2(C)[C@H]3CC[C@@H]4[C@H]5[C@H](C(=O)/C=C/c6cccnc6)CC[C@]5(C(=O)O)CC[C@@]4(C)[C@]3(C)CC[C@@H]12    2.06 µM
